SYSTEM_NAME: 5-HT2B (Homo sapiens)
Sequence (P41595 whole entry): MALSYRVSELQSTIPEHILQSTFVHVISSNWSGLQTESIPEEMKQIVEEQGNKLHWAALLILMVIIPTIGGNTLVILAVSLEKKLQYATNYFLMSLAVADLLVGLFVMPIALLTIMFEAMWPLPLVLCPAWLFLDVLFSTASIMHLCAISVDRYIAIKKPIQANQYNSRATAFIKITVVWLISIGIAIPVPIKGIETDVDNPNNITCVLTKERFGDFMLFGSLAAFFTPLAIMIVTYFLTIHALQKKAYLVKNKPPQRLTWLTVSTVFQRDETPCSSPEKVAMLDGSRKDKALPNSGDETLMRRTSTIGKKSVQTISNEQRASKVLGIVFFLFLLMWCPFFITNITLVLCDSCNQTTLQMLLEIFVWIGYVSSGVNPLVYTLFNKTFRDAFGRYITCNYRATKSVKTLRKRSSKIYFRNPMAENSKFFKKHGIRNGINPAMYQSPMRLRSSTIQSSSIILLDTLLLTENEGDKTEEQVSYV
ASSAY_EXPLANATION: Calcium flux (FLIPR) assay, human 5-HT2B stably expressed in HEK-293 (Flp-In-293) cells
CONDITION: human 5-HT2B in HEK-293 cells, normalized to 5-HT
MEASURE_NAME: Emax, % 5-HT 5-HT2B

Study these solved cases before continuing.
C#CCOc1cc(F)c(Cl)cc1C1CC1CN (single isomer, unassigned; (+)) [(+)-Example 6]
(30%) % 5-HT
C=CCOc1ccc(Cl)cc1C1CC1CN (single isomer, unassigned; (+)) [(+)-Example 23]
(32%) % 5-HT
NCC1CC1c1c(OCCF)ccc(Cl)c1Cl (single isomer, unassigned; (-)) [(−)-Example 38]
(62%) % 5-HT
C=CCOc1ccc(Cl)c(F)c1C1CC1CN (single isomer, unassigned; (+)) [(+)-Example 32]
(69%) % 5-HT
CCOc1cc(F)c(F)cc1C1CC1CN (single isomer, unassigned; (-)) [(−)-Example 41]
(35%) % 5-HT
COc1ccc(F)c(F)c1C1CC1CN (single isomer, unassigned; (-)) [(−)-Example 45]
(62%) % 5-HT
COCCOc1ccc(Cl)cc1C1CC1CN (single isomer, unassigned; (-)) [(−)-Example 17]
(32%) % 5-HT
COc1ccc(Cl)c(F)c1C1CC1CN (single isomer, unassigned; (-)) [(−)-Example 29]
(64%) % 5-HT

Just so you know, measured Emax, % 5-HT 5-HT2B for C#CCOc1ccc(Cl)cc1C1CC1CN (single isomer, unassigned; (-)) [(−)-Example 26] came out at (30%) % 5-HT

Just so you know, measured Emax, % 5-HT 5-HT2B for CCOc1ccc(F)c(Cl)c1C1CC1CN (single isomer, unassigned; (-)) [(−)-Example 51] came out at (33%) % 5-HT

Just so you know, measured Emax, % 5-HT 5-HT2B for C=C(F)COc1ccc(Cl)cc1C1CC1CN (single isomer, unassigned; (-)) [(−)-Example 25] came out at (33%) % 5-HT

Just so you know, measured Emax, % 5-HT 5-HT2B for COc1cc(F)c(F)cc1C1CC1CN (single isomer, unassigned; (+)) [(+)-Example 40] came out at (69%) % 5-HT

Just so you know, measured Emax, % 5-HT 5-HT2B for C=CCOc1ccc(F)c(F)c1C1CC1CN (single isomer, unassigned; (+)) [(+)-Example 49] came out at (35%) % 5-HT

Just so you know, measured Emax, % 5-HT 5-HT2B for COc1ccc(F)c(F)c1[C@@H]1C[C@H]1CN (single isomer, unassigned) [(+)-Example 45] came out at (64%) % 5-HT
